# procedure.text: Probe fluorescence ratio response to arachidonic acid relative to ADIFAB2
# Format: binding
# experimental.conditions: arachidonic acid; response relative to ADIFAB2
Recorded DR/DR AA, one value per entry.
Just the number.

See these solved cases before continuing.
molecule | DR/DR AA
31Y1, 72A (protein, listed as Rattus norvegicus, PEPTIDE (1)...(131) wild-type rat intestinal fatty acid binding protein) AFDGTWKVDRNENYEKFMEKMGINVVKRKLYAHDNLKLTITQEGNKFTVKESSNFRNIDVVFELGVDFAYSAADGTELTGTWTMEGNKLVGKFKRVDNGKELIAVREISGNELIQTYTYEGVEAKRIFKKE | 1.78
36M, 72A (protein, listed as Rattus norvegicus, PEPTIDE (1)...(131) wild-type rat intestinal fatty acid binding protein) AFDGTWKVDRNENYEKFMEKMGINVVKRKLGAHDNMKLTITQEGNKFTVKESSNFRNIDVVFELGVDFAYSAADGTELTGTWTMEGNKLVGKFKRVDNGKELIAVREISGNELIQTYTYEGVEAKRIFKKE | 1.23

Now examine the next entry.
Request: Please report DR/DR AA for the following molecule: 38Q 62I 106I 117A 72A (protein, listed as Rattus norvegicus, PEPTIDE (1)...(131) wild-type rat intestinal fatty acid binding protein) AFDGTWKVDRNENYEKFMEKMGINVVKRKLGAHDNLKQTITQEGNKFTVKESSNFRNIDVVIELGVDFAYSAADGTELTGTWTMEGNKLVGKFKRVDNGKELIAVIEISGNELIQTATYEGVEAKRIFKKE
Response: 1.656
